- Tested target: recombinant human PGHS-1 (COX-1) (Homo sapiens)
- Construct: made in house; host or cells: baculovirus/Sf9 insect cells (microsomes)
- Sequence (P23219 24-599): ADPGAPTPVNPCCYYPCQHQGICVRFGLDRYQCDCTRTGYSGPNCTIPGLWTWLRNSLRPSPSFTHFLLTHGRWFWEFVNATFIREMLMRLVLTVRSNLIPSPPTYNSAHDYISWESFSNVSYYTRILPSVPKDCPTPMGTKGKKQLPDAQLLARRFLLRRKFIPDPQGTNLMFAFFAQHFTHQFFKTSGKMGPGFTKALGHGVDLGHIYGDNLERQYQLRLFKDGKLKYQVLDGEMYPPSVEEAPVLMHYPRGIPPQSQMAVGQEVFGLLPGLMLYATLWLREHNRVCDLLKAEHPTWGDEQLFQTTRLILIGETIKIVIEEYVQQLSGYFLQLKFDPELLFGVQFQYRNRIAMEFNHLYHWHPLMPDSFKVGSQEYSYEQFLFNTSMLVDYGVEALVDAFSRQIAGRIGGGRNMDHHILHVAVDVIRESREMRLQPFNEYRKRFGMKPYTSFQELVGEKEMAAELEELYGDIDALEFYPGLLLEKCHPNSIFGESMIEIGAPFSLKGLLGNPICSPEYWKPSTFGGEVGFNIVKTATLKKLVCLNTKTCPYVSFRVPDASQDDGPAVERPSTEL
- Experimental protocol: Recombinant human PGHS-1 enzyme assay (PGE2 production by EIA)
- Type: biochemical
- Measurement context: 100 uM compound; 60 min preincubation; 10 uM arachidonic acid; read-out: COX-1 (% inhib. @ 100 uM)
Entries and their inhibition at 100 µM
The figure you give is taken to be in %; do not add the unit.

Example entries and their recorded answers appear below.
>>> reported("COc1ccc2c(c1)c(Cc1nc(-c3cccc([N+](=O)[O-])c3)cs1)c(C)n2C(=O)c1ccc(Cl)cc1 [Example 10]")
31
>>> reported("COc1ccc2c(c1)c(Cc1nc(-c3ccc(Cl)cc3)cs1)c(C)n2C(=O)c1ccc(Cl)cc1 [Example 5]")
16
>>> reported("COc1ccc2c(c1)c(Cc1nc(-c3ccc4ccccc4c3)cs1)c(C)n2C(=O)c1ccc(Cl)cc1 [Example 3]")
21
>>> reported("COc1ccc2c(c1)c(Cc1nc(-c3csc4ccccc34)cs1)c(C)n2C(=O)c1ccc(Cl)cc1 [Example 7]")
23
>>> reported("COc1ccc2c(c1)c(Cc1nc(-c3ccc([N+](=O)[O-])cc3)cs1)c(C)n2Cc1ccc(Br)cc1 [Example 16]")
21

Dear colleague, I am looking for the recorded inhibition at 100 µM of the following molecule: COc1ccc2c(c1)c(Cc1nc(-c3ccc(Cl)cc3)cs1)c(C)n2Cc1ccc(Br)cc1 [Example 14]
15

Entry to check: COc1ccc2c(c1)c(Cc1nc(-c3ccc(O)c([N+](=O)[O-])c3)cs1)c(C)n2C(=O)c1ccc(Cl)cc1 [Example 11]
23
